The reported measurements were obtained from patent US20250066490A1.

Molecular target: T1, human CD70 expressed on the cell surface of tumor cell lines (human, UniProt P32970 1-193)
T1 construct: whole, on cells
T1 sequence (looked up): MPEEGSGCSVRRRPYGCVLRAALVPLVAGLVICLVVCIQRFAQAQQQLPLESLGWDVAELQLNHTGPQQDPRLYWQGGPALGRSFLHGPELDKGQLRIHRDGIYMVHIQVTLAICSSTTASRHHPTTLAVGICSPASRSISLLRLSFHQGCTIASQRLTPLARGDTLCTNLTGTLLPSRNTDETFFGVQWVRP
Assay: flow cytometry on 786-O cells
measured_endpoint: pEC50
Worth noting: pEC50 values are minus log10 of concentrations stated in mol/L.

Bench note: what pEC50 did 2A4, full IgG (antibody, V domains shown) VH: QVQLQESGPGLVKPSETLSLTCTVSGGSVSSDYYYWSWIRQPPGKGLEWLGYIYYSGSTNYNPSLKSRVTISVDTSKNQFSLKLRSVTTADTAVYYCARGDGDYGGNVFPYWGQGTLVTVSS VL: EIVLTQSPATLSLSPGERATLSCRASQSVSSYLAWYQQKPGQAPRLLIFDASNRATGIPARFSGSGSGTDFTLTISSLEPEDFAVYYCQQRSNWPLTFGGGTKVEIK show? 6.85

Bench note: what pEC50 did 1H8, full IgG (antibody, V domains shown) VH: QVQLQESGPGLVKPSETLSLTCTVSGGSVSSDYYYWSWIRQPPGKGLEWLGYIYYSGSTNYNPSLKSRVTISVDTSKNQFSLKLRSVTTADTAVYYCARGDGDFMGVCFDYWGQGTLVTVSS VL: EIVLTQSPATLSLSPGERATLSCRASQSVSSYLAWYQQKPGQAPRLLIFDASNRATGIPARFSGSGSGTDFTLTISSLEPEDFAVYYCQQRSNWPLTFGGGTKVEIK show? 8.29

Bench note: what pEC50 did 2D2, full IgG (antibody, V domains shown) VH: QVQLQESGPGLVKPSETLSLTCTVSGGSVSSDYYYWSWIRQPPGKGLEWLGYIYYSGSTNYNPSLKSRVTISVDTSKNQFSLKLRSVTTADTAVYYCARGDGDYGGNCFDYWGQGTLVTVSS VL: EIVLTQSPATLSLSPGERATLSCRASQSVSSYLAWYQQKPGQAPRLLIFDASNRATGIPARFSGSGSGTDFTLTISSLEPEDFAVYYCQQRLKFPLTFGGGTKVEIK show? 8.25
